biological target: JMJD2C (Homo sapiens (Human))
Sequence (Q9H3R0 2-372): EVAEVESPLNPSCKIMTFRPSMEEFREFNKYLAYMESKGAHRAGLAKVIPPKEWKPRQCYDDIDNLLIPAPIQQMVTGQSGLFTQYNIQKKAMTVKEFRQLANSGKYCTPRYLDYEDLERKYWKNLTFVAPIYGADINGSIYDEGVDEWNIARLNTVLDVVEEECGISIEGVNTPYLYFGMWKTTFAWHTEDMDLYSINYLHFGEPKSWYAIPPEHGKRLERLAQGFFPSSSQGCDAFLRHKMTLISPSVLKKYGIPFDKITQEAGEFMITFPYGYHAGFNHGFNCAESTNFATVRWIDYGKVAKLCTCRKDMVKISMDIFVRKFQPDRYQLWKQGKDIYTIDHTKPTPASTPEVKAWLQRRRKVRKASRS
readout label: IC50

molecule	measurement
O=C(O)c1ccncc1NCC1(O)CCCc2cc(Cl)ccc21 (stereo not shown) [Example 68]	100 to 1000 nM
